- target: rat α7 nAChRs (Rattus norvegicus, UniProt Q05941)
- Construct: expressed in transfected cells; host or cells: GH4C1 cells (rat pituitary line) stably expressing α7 nAChR
- Sequence (Q05941 23-502): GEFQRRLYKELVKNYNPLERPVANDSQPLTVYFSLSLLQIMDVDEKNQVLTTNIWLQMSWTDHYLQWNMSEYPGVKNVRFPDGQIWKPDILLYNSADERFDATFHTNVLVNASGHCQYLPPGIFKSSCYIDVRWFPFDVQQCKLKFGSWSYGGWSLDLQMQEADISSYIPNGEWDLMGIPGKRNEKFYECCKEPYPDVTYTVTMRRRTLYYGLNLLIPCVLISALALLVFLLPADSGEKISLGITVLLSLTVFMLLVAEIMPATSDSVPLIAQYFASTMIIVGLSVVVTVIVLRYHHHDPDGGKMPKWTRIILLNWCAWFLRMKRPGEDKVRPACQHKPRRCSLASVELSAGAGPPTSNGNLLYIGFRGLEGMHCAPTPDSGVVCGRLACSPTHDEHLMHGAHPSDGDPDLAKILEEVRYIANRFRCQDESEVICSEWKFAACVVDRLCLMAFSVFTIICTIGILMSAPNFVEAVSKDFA
- testName: Automated planar patch clamp (Patchliner) electrophysiology, α7 nAChR PAM activity
- Format: cell-based
- Design: key: I: Type 1 predominately affects the peak current; Type II modulators affect the peak current and also delay the desensitization of the receptor
- condition: modulator type based on the electrophysiology trace
readout: Type I or Type II

1) CC1(C)[C@@H](CNc2cc(OC(F)(F)F)ccc2F)[C@@H]1c1ccc(S(N)(=O)=O)cc1 [Example 40] ... II
2) COc1ccc(Cl)cc1NC[C@@H]1[C@@H](c2ccc(S(N)(=O)=O)cc2)C1(C)C [Example 4] ... II
3) COc1ccc(Cl)cc1NC[C@H]1C[C@@H]1c1ccc(S(N)(=O)=O)cc1 [Example 1] ... II
4) COc1ccccc1NC[C@@H]1[C@@H](c2ccc(S(N)(=O)=O)cc2)C1(C)C [Example 25] ... II
5) COc1ccc(Cl)cc1NC[C@@H]1[C@@H](c2ccc(S(=O)(=O)NO)cc2)C1(C)C [Example 55] ... I

// fetch Type I or Type II given entry Cc1ncccc1NC[C@@H]1[C@@H](c2ccc(S(N)(=O)=O)cc2)C1(C)C [Example 36]
II

* * *

- target: rat α7 nAChRs (Rattus norvegicus, UniProt Q05941)
- Construct: expressed in transfected cells; host or cells: GH4C1 cells (rat pituitary line) stably expressing α7 nAChR
- testName: Automated planar patch clamp (Patchliner) electrophysiology, α7 nAChR PAM activity
- Type: cell-based
- Design: key: I: Type 1 predominately affects the peak current; Type II modulators affect the peak current and also delay the desensitization of the receptor
- condition: modulator type based on the electrophysiology trace
readout: Type I or Type II

Worked examples follow.
1) Cc1cc(F)ccc1NC[C@@H]1[C@@H](c2ccc(S(N)(=O)=O)cc2)C1(C)C (single isomer, unassigned; enantiomer a) [Example 57] ... I
2) COc1ccc(Cl)cc1NC[C@@H]1[C@@H](c2ccc(NS(C)(=O)=O)cc2)C1(C)C (single isomer, unassigned; enantiomer a) [Example 47] ... I
3) CC1(C)C(c2ccc(S(N)(=O)=O)cc2)[C@H]1CNc1ccc(F)cc1OC(F)F (mixture of isomers) [Example 34] ... II
4) CC1(C)[C@H](CNc2ccccc2)[C@H]1c1ccc(S(N)(=O)=O)cc1 [Example 5] ... II
5) NS(=O)(=O)c1ccc([C@@H]2C[C@H]2CNc2ccc(C(F)(F)F)cn2)cc1 [Example 19] ... I

// fetch Type I or Type II given entry CC1(C)[C@H](CNc2cc(Cl)ccc2C(F)(F)F)[C@H]1c1ccc(S(N)(=O)=O)cc1 [Example 45]
I

// fetch Type I or Type II given entry CC1(C)[C@H](CNc2cccc(N3CCOCC3)c2)[C@H]1c1ccc(S(N)(=O)=O)cc1 [Example 26]
II

// fetch Type I or Type II given entry CC1(C)[C@@H](CNc2cc(F)ccc2OC(F)(F)F)[C@@H]1c1ccc(S(N)(=O)=O)cc1 [Example 41]
I

// fetch Type I or Type II given entry CC1(C)[C@H](CNc2cccc(Cl)c2)[C@H]1c1ccc(S(N)(=O)=O)cc1 [Example 24]
II

// fetch Type I or Type II given entry COc1ccc(Cl)cc1NC[C@H]1C[C@@H]1Cc1ccc(S(N)(=O)=O)cc1 [Example 54]
I

// fetch Type I or Type II given entry Cc1ccc(F)cc1NC[C@H]1[C@H](c2ccc(S(N)(=O)=O)cc2)C1(C)C [Example 31]
II

* * *

# activation at 3 µM listing for each entry below
- target: rat α7 nAChRs (Rattus norvegicus)
- Construct: expressed in transfected cells; host or cells: GH4C1 cells (rat pituitary line) stably expressing α7 nAChR
- testName: Automated planar patch clamp (Patchliner) electrophysiology, α7 nAChR PAM activity
- Type: cell-based
- condition: GH4-C1; 3 μM compound in the presence of acetylcholine; GH4C1 cells expressing rat α7 nAChRs; peak current; read-out: Peak potentiation at 3 μM compound
API: value field is a number in %; no unit string.

Worked examples follow.
1) NS(=O)(=O)c1ccc([C@H]2C[C@@H]2CNc2ccc(F)cc2)cc1 ... 969
2) COc1ccc(Cl)cc1NC[C@@H]1[C@@H](c2ccc(-c3ccccc3O)cc2)C1(C)C ... 100
3) CC1(C)[C@H](CNc2cccc(Cl)c2)[C@H]1c1ccc(S(N)(=O)=O)cc1 ... 901
4) COc1ccc(Cl)cc1NC[C@@H]1[C@@H](c2ccc(NS(C)(=O)=O)cc2)C1(C)C (racemic) [Example 46] ... 783
5) CC1(C)[C@H](CNC2CCCCC2(F)F)[C@H]1c1ccc(S(N)(=O)=O)cc1 (relative stereo) ... 38
6) Cc1cc(F)c(F)cc1NC[C@@H]1[C@@H](c2ccc(S(N)(=O)=O)cc2)C1(C)C ... 419

// fetch activation at 3 µM given entry CC1(C)[C@H](CNc2ccc(F)cc2OC(F)F)[C@H]1c1ccc(S(N)(=O)=O)cc1
171

// fetch activation at 3 µM given entry NS(=O)(=O)c1ccc([C@H]2C[C@@H]2CNc2ccc(C(F)(F)F)cn2)cc1
401

* * *

- target: rat α7 nAChRs (Rattus norvegicus, UniProt Q05941)
- Construct: expressed in transfected cells; host or cells: GH4C1 cells (rat pituitary line) stably expressing α7 nAChR
- testName: Automated planar patch clamp (Patchliner) electrophysiology, α7 nAChR PAM activity
- Assay type: cell-based
- Set-up: key: I: Type 1 predominately affects the peak current; Type II modulators affect the peak current and also delay the desensitization of the receptor
- condition: modulator type based on the electrophysiology trace
- Protocol: Tested compounds were prepared by serial dilutions of 10 mM stock solution in DMSO to concentrations of the compound 1000 times higher than its final concentration. […] Compounds of the invention may be evaluated by electrophysiology using a Patchliner® (Nanion Technologies GmbH, Germany), an automated planar patch-clamp platform of medium throughput was used as a first step in electrophysiological assessment of α7 nAChR positive allosteric modulators (PAMs). […]
readout: Type I or Type II

Worked examples follow.
1) Cc1cc(F)c(Cl)cc1NC[C@@H]1[C@@H](c2ccc(S(N)(=O)=O)cc2)C1(C)C [Example 37] ... II
2) CC1(C)[C@H](CNc2ccc(F)cc2)[C@H]1c1ccc(S(N)(=O)=O)cc1 [Example 13] ... II
3) Cc1cccnc1NC[C@@H]1[C@@H](c2ccc(S(N)(=O)=O)cc2)C12CCCC2 [Example 49] ... II
4) NS(=O)(=O)c1ccc([C@H]2C[C@@H]2CNc2ccc(F)c(F)c2)cc1 [Example 2] ... II
5) COc1ccc(C(F)(F)F)cc1NC[C@@H]1[C@@H](c2ccc(S(N)(=O)=O)cc2)C1(C)C [Example 28] ... II
6) CC1(C)C(c2ccc(S(N)(=O)=O)cc2)[C@H]1CNc1ccc(F)c(C(F)(F)F)c1 (mixture of isomers) [Example 33] ... II

// fetch Type I or Type II given entry NS(=O)(=O)c1ccc([C@@H]2C[C@H]2CNc2cc(F)ccc2OC(F)(F)F)cc1 (stereo in doubt) [Example 53]
II

// fetch Type I or Type II given entry Cc1cc(F)ccc1NC[C@H]1[C@H](c2ccc(S(N)(=O)=O)cc2)C1(C)C (single isomer, unassigned; enantiomer b) [Example 58]
II

// fetch Type I or Type II given entry NS(=O)(=O)c1ccc([C@@H]2C[C@H]2CNc2ccc(F)cc2)cc1 [Example 18]
I

* * *

readout: melting point

Worked examples follow.
1. Cc1ncccc1NC[C@@H]1[C@@H](c2ccc(S(N)(=O)=O)cc2)C1(C)C ... 174 to 176 °C
2. CCOc1ccc(Cl)cc1NC[C@@H]1[C@@H](c2ccc(S(N)(=O)=O)cc2)C1(C)C ... 122 to 124 °C
3. COc1ccc(C(F)(F)F)cc1NC[C@@H]1[C@@H](c2ccc(S(N)(=O)=O)cc2)C1(C)C ... 68 to 70 °C

// fetch melting point given entry NS(=O)(=O)c1ccc([C@H]2C[C@@H]2CNc2cc(F)ccc2OC(F)(F)F)cc1
115 to 118 °C

* * *

- target: rat α7 nAChRs (Rattus norvegicus)
- Construct: expressed in transfected cells; host or cells: GH4C1 cells (rat pituitary line) stably expressing α7 nAChR
- testName: Automated planar patch clamp (Patchliner) electrophysiology, α7 nAChR PAM activity
- Format: cell-based
- condition: GH4-C1; 3 μM compound in the presence of acetylcholine; GH4C1 cells expressing rat α7 nAChRs; peak current; read-out: Peak potentiation at 3 μM compound
readout: activation at 3 µM (%)
API: value field is a number in %; no unit string.

Worked examples follow.
1. CC1(C)[C@@H](CNc2cc(OC(F)(F)F)ccc2F)[C@@H]1c1ccc(S(N)(=O)=O)cc1 [Example 40] ... 309
2. CC1(C)[C@H](CNc2cccc(N3CCOCC3)c2)[C@H]1c1ccc(S(N)(=O)=O)cc1 [Example 26] ... 455
3. CC(C)(C)c1cc(NC[C@@H]2C(c3ccc(S(N)(=O)=O)cc3)C2(C)C)no1 (mixture of isomers) [Example 35] ... 57
4. CC1(C)[C@H](CNc2ccc(F)cc2C(F)(F)F)[C@H]1c1ccc(S(N)(=O)=O)cc1 [Example 15] ... 413
5. Cc1ccc(F)cc1NC[C@@H]1[C@@H](c2ccc(S(N)(=O)=O)cc2)C1(C)C [Example 29] ... 456
6. CC1(C)[C@H](CNc2ccnc(C(F)(F)F)c2)[C@H]1c1ccc(S(N)(=O)=O)cc1 [Example 11] ... 15
7. Cc1ncccc1NC[C@@H]1[C@@H](c2ccc(S(N)(=O)=O)cc2)C1(C)C [Example 36] ... 125
8. CN(C[C@@H]1[C@@H](c2ccc(S(N)(=O)=O)cc2)C1(C)C)c1ccccc1 [Example 6] ... 506

We next turn to a different compound, shown below.
// fetch activation at 3 µM given entry COc1ccc(Cl)cc1N(C)C[C@@H]1[C@@H](c2ccc(S(N)(=O)=O)cc2)C1(C)C [Example 7]
134

Cited source: patent US9790173B2
